Conditions: in toluene, 283.15 K
Observation Type: solubility (mole fraction)

> print(dat)
                                structure            observation.type  numeric.result
1  CC(=O)Nc1ccc(OC(=O)c2ccccc2OC(C)=O)cc1  solubility (mole fraction)         1.8e-05

---

Conditions: in ethyl acetate, 308.15 K
Observation Type: solubility (mole fraction)

> print(dat)
                                structure  numeric.result
1  CC(=O)Nc1ccc(OC(=O)c2ccccc2OC(C)=O)cc1         0.00141

---

Settings: in n-butanol, 313.15 K
Observation Type: solubility (mole fraction)

> print(dat)
                                structure            observation.type  numeric.result
1  CC(=O)Nc1ccc(OC(=O)c2ccccc2OC(C)=O)cc1  solubility (mole fraction)        0.000852

The measured values listed here are drawn from BigSolDB 2.1.
